# assay overview: Cell lysate reaction of pMT enzymes with psi-ionone, irones quantified by HS-SPME-GCMS
# Type: biochemical
# measurement conditions: pMT1_E153 mutants; AUC vs non-mutated (=1)
Here the recorded fold change in cis-α-irone produced is given for each entry.

molecule | fold change in cis-α-irone produced
pMT1_E153S: pMT1 with E153S (protein) MPQEARTPQQQVTADEVGDWYDKFGEVYHLTLGESVHCGLWFPPDAPVPQDMELVTMSSQAQDRYTDYLIETLDPKAGQHLLDIGCGTGRTALKAARQRGIAVTGVAVSKEQIAAANRLAAGHGLTERLTFEVADAMRLPYEDESFDCAWAISSLCHMDRAKALGEAWRVLKPGGDLLVLESVVTEELTEPETALFETLYAANVPPRLGEFFDIVSGAGFHTLSLKDLSANLAMTMNVFALGVYSRRAEFTERFGAEFVDGLLAGLGSAQETLIRKTRFFMATLRKPAV | 0.0
pMT1_E153Q: pMT1 with E153Q (protein) MPQEARTPQQQVTADEVGDWYDKFGEVYHLTLGESVHCGLWFPPDAPVPQDMELVTMSSQAQDRYTDYLIETLDPKAGQHLLDIGCGTGRTALKAARQRGIAVTGVAVSKEQIAAANRLAAGHGLTERLTFEVADAMRLPYEDESFDCAWAIQSLCHMDRAKALGEAWRVLKPGGDLLVLESVVTEELTEPETALFETLYAANVPPRLGEFFDIVSGAGFHTLSLKDLSANLAMTMNVFALGVYSRRAEFTERFGAEFVDGLLAGLGSAQETLIRKTRFFMATLRKPAV | 0.0
pMT1_E153H: pMT1 with E153H (protein) MPQEARTPQQQVTADEVGDWYDKFGEVYHLTLGESVHCGLWFPPDAPVPQDMELVTMSSQAQDRYTDYLIETLDPKAGQHLLDIGCGTGRTALKAARQRGIAVTGVAVSKEQIAAANRLAAGHGLTERLTFEVADAMRLPYEDESFDCAWAIHSLCHMDRAKALGEAWRVLKPGGDLLVLESVVTEELTEPETALFETLYAANVPPRLGEFFDIVSGAGFHTLSLKDLSANLAMTMNVFALGVYSRRAEFTERFGAEFVDGLLAGLGSAQETLIRKTRFFMATLRKPAV | 0.0
pMT1_E153T: pMT1 with E153T (protein) MPQEARTPQQQVTADEVGDWYDKFGEVYHLTLGESVHCGLWFPPDAPVPQDMELVTMSSQAQDRYTDYLIETLDPKAGQHLLDIGCGTGRTALKAARQRGIAVTGVAVSKEQIAAANRLAAGHGLTERLTFEVADAMRLPYEDESFDCAWAITSLCHMDRAKALGEAWRVLKPGGDLLVLESVVTEELTEPETALFETLYAANVPPRLGEFFDIVSGAGFHTLSLKDLSANLAMTMNVFALGVYSRRAEFTERFGAEFVDGLLAGLGSAQETLIRKTRFFMATLRKPAV | 0.0
